Data provenance is the supplement of paper PMC12350171.

Known growth AUC normalised to DMSO control of a selection of molecules
# Tested on: Vibrio cholerae
# Assay comment: growth AUC normalised to DMSO control (fraction of control); higher = less growth inhibition, active = hit call of the paper
# Recorded conditions: 20 µM

The value of growth AUC normalised to DMSO control measured for the molecule COc1cc([S+](C)[O-])ccc1-c1nc2cccnc2[nH]1 (centres undefined) turned out to be 1.04 (inactive)

The value of growth AUC normalised to DMSO control measured for the molecule C=CC1=C(C(=O)O)N2C(=O)[C@@H](NC(=O)/C(=N\O)c3csc(N)n3)[C@H]2SC1 turned out to be 0.0728 (active)

The value of growth AUC normalised to DMSO control measured for the molecule CC(=O)Nc1ccc(O)cc1 turned out to be 0.997 (inactive)

The value of growth AUC normalised to DMSO control measured for the molecule CC1(C)O[C@@H]2C[C@H]3[C@@H]4CCC5=CC(=O)CC[C@]5(C)[C@@]4(F)[C@@H](O)C[C@]3(C)[C@]2(C(=O)CCl)O1 [Halcinonide] turned out to be 0.99 (inactive)

###

# System: Salmonella enterica typhimurium
# Assay comment: growth AUC normalised to DMSO control (fraction of control); higher = less growth inhibition, active = hit call of the paper
# Recorded conditions: 20 µM
Where a name gives a salt, the structure may show the parent alone.
Assay endpoint: growth AUC normalised to DMSO control
Output: the number by itself.

>>> reported("CC1(C)S[C@@H]2[C@H](NC(=O)Cc3ccccc3)C(=O)N2[C@H]1C(=O)O [Benzylpenicillin sodium]")
0.0129
>>> reported("CCOC(=O)C1=C(C)NC(C)=C(C(=O)OC)C1c1cccc(Cl)c1Cl (centres undefined)")
0.987
>>> reported("C=C1C[C@H]2[C@@H]3C=C(C)C4=CC(=O)CC[C@]4(C)[C@H]3CC[C@]2(C)[C@@]1(OC(C)=O)C(C)=O [Melengestrol acetate]")
0.981

Assay Salmonella enterica typhimurium, sample CCn1cc(C(=O)O)c(=O)c2ccc(C)nc21 [Nalidixic acid sodium salt] , growth AUC normalised to DMSO control read: 0.594

###

# Test system: Vibrio cholerae
# Assay comment: growth AUC normalised to DMSO control (fraction of control); higher = less growth inhibition, active = hit call of the paper
# Recorded conditions: 20 µM
Where a name gives a salt, the structure may show the parent alone.
Known growth AUC normalised to DMSO control of a selection of compounds

Consider the worked cases shown below.
>>> reported("CCCc1nn(C)c2c(=O)[nH]c(-c3cc(S(=O)(=O)N4CCN(C)CC4)ccc3OCC)nc12")
"1.06 (inactive)"
>>> reported("Cc1oncc1C(=O)Nc1ccc(C(F)(F)F)cc1 [Leflunomide]")
"0.914 (inactive)"
>>> reported("Nc1ccn([C@H]2CC[C@@H](CO)O2)c(=O)n1")
"1.06 (inactive)"
>>> reported("N=C(N=C(N)N)N1CCOCC1 [Moroxidine hydrochloride]")
"0.991 (inactive)"
>>> reported("COc1ccccc1OCCNCC(O)COc1cccc2[nH]c3ccccc3c12 (centres undefined)")
"0.994 (inactive)"
>>> reported("Clc1ccc(CO/N=C(\\Cn2ccnc2)c2ccc(Cl)cc2Cl)c(Cl)c1 [Oxiconazole nitrate]")
"1.05 (inactive)"
>>> reported("O=c1[nH]c(=O)n([C@H]2C[C@H](O)[C@@H](CO)O2)cc1C(F)(F)F")
"1.05 (inactive)"
>>> reported("O=S(=O)(O)CCS")
"1.01 (inactive)"

Next compound, growth AUC normalised to DMSO control to be filled in.
The value of growth AUC normalised to DMSO control measured for the compound Cc1c(N(C)CS(=O)(=O)O)c(=O)n(-c2ccccc2)n1C [Dipyrone sodium salt] turned out to be 1.09 (inactive)
